test: Biodistribution in baboon plasma at 340 mg, iv after 90 mins; format: ADME, organism-based; conditions: papio hamadryas, read-out: Drug uptake
measured quantity: concentration at 1.5 h

[[record]]
smiles_text = "N[11C](=O)c1cnccn1"
recorded_measurement = "9040 ng/mL"


###

experiment: Biodistribution in baboon kidney cortex at 170 mg, iv after 30 mins; format: ADME, organism-based; conditions: papio hamadryas, read-out: Drug uptake
measured quantity: concentration at 0.5 h

[[record]]
compound = "CO[C@H]1/C=C/O[C@@]2(C)Oc3c(C)c(O)c4cc(c(/C=N/N5CCN([11CH3])CC5)c(O)c4c3C2=O)NC(=O)/C(C)=C\\C=C\\C(C)[C@H](O)[C@@H](C)[C@@H](O)[C@@H](C)[C@H](OC(C)=O)[C@@H]1C (stereo partly specified)"
recorded_measurement = "6340 ng/mL"


Where do the numbers come from? From ChEMBL document CHEMBL1156308.
